# assay-procedure: In vitro rat liver S9 stability assay, formation of tafamidis
# Format: in vitro ADME
# condition-description: rat liver S9, 37° C., 1 µM test compound
quantity: Formation of tafamidis at 60 min

[[record]]
structure = "O=C(OCCN1CCNCC1)c1ccc2nc(-c3cc(Cl)cc(Cl)c3)oc2c1"
quantity = "Formation of tafamidis at 60 min"
observed = "A (A is <25%)"

[[record]]
structure = "CN1C[C@H](OC(=O)c2ccc3nc(-c4cc(Cl)cc(Cl)c4)oc3c2)[C@@H](O)C1"
quantity = "Formation of tafamidis at 60 min"
observed = "B (B is ≥25 to <50%)"

[[record]]
structure = "O=C(OCCN1CCCC1)c1ccc2nc(-c3cc(Cl)cc(Cl)c3)oc2c1"
quantity = "Formation of tafamidis at 60 min"
observed = "B (B is ≥25 to <50%)"

[[record]]
structure = "COc1nc(C)c(COC(=O)c2ccc3nc(-c4cc(Cl)cc(Cl)c4)oc3c2)o1"
quantity = "Formation of tafamidis at 60 min"
observed = "A (A is <25%)"


====

# assay-procedure: In vitro rat plasma stability assay, formation of tafamidis
# Assay type: in vitro ADME
# condition-description: 37° C., 2 µM test compound
quantity: Formation of tafamidis at 120 min

The examples below pair each entry with its known result.
[[record]]
compound = "O=C(OCCN1CCCCC1)c1ccc2nc(-c3cc(Cl)cc(Cl)c3)oc2c1"
observed = "A (A is <25%)"

[[record]]
compound = "CNC(=O)c1ccc2nc(-c3cc(Cl)cc(Cl)c3)oc2c1"
observed = "A (A is <25%)"

[[record]]
compound = "N#CCCN1CCC(OC(=O)c2ccc3nc(-c4cc(Cl)cc(Cl)c4)oc3c2)C1 (centres unmarked)"
observed = "B (B is ≥25 to <50%)"

[[record]]
compound = "CN1C[C@@H](O)[C@H](OC(=O)c2ccc3nc(-c4cc(Cl)cc(Cl)c4)oc3c2)C1"
observed = "D (D is ≥75%)"

[[record]]
compound = "Cc1oc(=O)oc1COC(=O)c1ccc2nc(-c3cc(Cl)cc(Cl)c3)oc2c1"
observed = "D (D is ≥75%)"

[[record]]
compound = "O=C(OCc1ncccn1)c1ccc2nc(-c3cc(Cl)cc(Cl)c3)oc2c1"
observed = "B (B is ≥25 to <50%)"


Which Formation of tafamidis at 120 min is listed for O=C(OC1CCN2CCCC12)c1ccc2nc(-c3cc(Cl)cc(Cl)c3)oc2c1 (centres unmarked) ?
B (B is ≥25 to <50%)

====

# assay-procedure: In vitro rat plasma stability assay, formation of tafamidis
# Assay type: in vitro ADME
# condition-description: 37° C., 2 µM test compound
# Protocol: A stability assay in plasma (rat or human) was used to evaluate the ability of a compound provided herein to convert to an active TTR stabilizer. The test compound was added to plasma and incubated at 37° C. in a water bath at a concentration of 2 µM. […] After centrifugation, an aliquot of supernatant was analyzed by LC-MS/MS. The percentage of formation of active agent was calculated at each time point.
Where a name gives a salt, the structure may show the parent alone.
quantity: Formation of tafamidis at 120 min

The examples below pair each entry with its known result.
[[record]]
compound = "CN1CCC(COC(=O)c2ccc3nc(-c4cc(Cl)cc(Cl)c4)oc3c2)C1 (stereo not shown) [Compound 60]"
quantity = "Formation of tafamidis at 120 min"
observed = "A (A is <25%)"

[[record]]
compound = "CN1CC[C@H](OC(=O)c2ccc3nc(-c4cc(Cl)cc(Cl)c4)oc3c2)C1 [Compound 58, hydrochloride]"
quantity = "Formation of tafamidis at 120 min"
observed = "D (D is ≥75%)"

[[record]]
compound = "C[C@@H](COC(=O)c1ccc2nc(-c3cc(Cl)cc(Cl)c3)oc2c1)N(C)C [Compound 44]"
quantity = "Formation of tafamidis at 120 min"
observed = "C (C is ≥50 to <75%)"

[[record]]
compound = "CC(C)(C)OC(=O)N[C@@H](Cc1ccc(OC(=O)c2ccc3nc(-c4cc(Cl)cc(Cl)c4)oc3c2)cc1)C(=O)OCc1ccccc1 [Compound 18]"
quantity = "Formation of tafamidis at 120 min"
observed = "C (C is ≥50 to <75%)"

[[record]]
compound = "CCN(C)CCOC(=O)c1ccc2nc(-c3cc(Cl)cc(Cl)c3)oc2c1 [Compound 43]"
quantity = "Formation of tafamidis at 120 min"
observed = "C (C is ≥50 to <75%)"

[[record]]
compound = "CN1C[C@H](OC(=O)c2ccc3nc(-c4cc(Cl)cc(Cl)c4)oc3c2)[C@@H](O)C1 [Compound 57]"
quantity = "Formation of tafamidis at 120 min"
observed = "B (B is ≥25 to <50%)"

[[record]]
compound = "O=C(OC1CCc2nccn2C1)c1ccc2nc(-c3cc(Cl)cc(Cl)c3)oc2c1 (stereo not shown) [Compound 157, hydrochloride]"
quantity = "Formation of tafamidis at 120 min"
observed = "B (B is ≥25 to <50%)"

[[record]]
compound = "CN1CC[C@@H](OC(=O)c2ccc3nc(-c4cc(Cl)cc(Cl)c4)oc3c2)C1 [Compound 59]"
quantity = "Formation of tafamidis at 120 min"
observed = "C (C is ≥50 to <75%)"


Which Formation of tafamidis at 120 min is listed for CC(C)(C)OC(=O)N[C@H](Cc1ccc(OC(=O)c2ccc3nc(-c4cc(Cl)cc(Cl)c4)oc3c2)cc1)C(=O)O [Compound 70] ?
B (B is ≥25 to <50%)
